# procedure summary: Cell viability (CCK-8), cytotoxicity
# condition notes: human, THP1 cells, Cell viability (Fig. S7a), XQ2 20000 nM
Square brackets hold non-standard residues; d marks the D form. Peptide text beside a SMILES is read from it.
measure name: viability at 48 h, 20 µM (%)
Response body: numeric value in %, unit text excluded.

Which viability at 48 h, 20 µM reading was recorded for the compound CC(C)C[C@@H]1NC(=O)[C@H](CCCNC(=N)N)NC(=O)[C@H](C(C)C)NC(=O)[C@@H]2CCCN2C(=O)[C@@H](Cc2ccccc2)NC(=O)[C@H](CC(C)C)NC(=O)[C@H](CCCNC(=N)N)NC(=O)[C@H](C(C)C)NC(=O)[C@H](C)NC(=O)[C@@H](Cc2ccccc2)NC1=O [XQ2, Cyclo (LfAVRLfPVR)] (cyclo(L[dF]AVRL[dF]PVR)) ?
56.9
